melting point reference

// solved cases for melting point follow
>  <molecule>
N#CCC(CC#N)c1ccccc1Br

>  <property>
melting point

>  <val>
94 to 96 °C

$$$$
>  <molecule>
O=C1c2ccccc2C(O)N1CCN1CCC(c2noc3cc(F)ccc23)CC1 (stereo not given)

>  <property>
melting point

>  <val>
172 to 173 °C

$$$$
>  <molecule>
O=S(=O)(O)NCc1cc(I)cc(I)c1O

>  <property>
melting point

>  <val>
168 to 170 °C

$$$$
>  <molecule>
CN1CCN(C(=O)c2ccc3cc(-c4csc(N(C)S(=O)(=O)c5ccccc5)n4)c(=O)[nH]c3c2)CC1

>  <property>
melting point

>  <val>
242 to 247 °C

$$$$

Challenge: What measured melting point goes with CCOC(=O)C1=C(C)NC(c2cscn2)=NC1c1cccc(O)c1 (stereo not given) ?
Response given: 180 to 183 °C

====

property: melting point

>  <chemical_string>
COc1ccnc(CCc2ccnc(N)c2N)c1

>  <val>
89 to 91 °C

$$$$

Challenge: Return reported melting point; argument: CC(=O)CC(=O)c1cc(Cl)c(Cl)cc1O
Response given: 134 to 135 °C

Challenge: Please report the recorded melting point for CC(C)c1cc(OS(C)(=O)=O)cc(C(C)C)c1NC(=O)CN1CCN(CCSc2nc3ccccc3o2)CC1 .
Response given: 115 to 117 °C

Challenge: Fill in: melting point of N#Cc1ccc(-c2ccc3oc(CCN)cc3c2)cc1 is ___
Response given: 118 to 120 °C

Challenge: Query: melting point; subject: C=C1N(C)C(=O)OC12CCN(CC=C(c1ccccc1)c1ccccc1)CC2
Response given: 126 to 127 °C

====

Measured melting point, listed per entry for reference.

>  <compound>
O=C(Nc1ccc(-n2nc(C(F)(F)F)cc2C(F)(F)F)cc1)c1cc(F)c(F)c(F)c1F

>  <melting point>
138 to 140 °C

$$$$
>  <compound>
CCOC(=O)Cc1nc(-c2ccc(Cl)cc2)oc1CC(C)C

>  <melting point>
56 to 57 °C

$$$$
>  <compound>
COc1cccc(C(CCCCCCc2ccccc2)CNC(=O)Cc2c(Cl)cncc2Cl)c1 (centres undefined)

>  <melting point>
97 to 98 °C

$$$$

Challenge: Return reported melting point; argument: O=c1[nH]c2ccccc2n1C1CCN(CCCOc2ccc(F)cc2Cl)CC1
Response given: 149 to 150 °C

Challenge: // lookup melting point for c1ccc(-c2ccnc3ccnn23)cc1
Response given: 72 to 73 °C

Challenge: Item COC(=O)c1sc(C(C)C)cc1NC(=O)Nc1ccccc1 has what recorded melting point?
Response given: 108 to 110 °C

====

property: melting point

Challenge: Reported melting point for O=C1C(=O)c2ccccc2C2=C1SCC1(CCN(Cc3ccc(-c4cn[nH]c4)cc3)CC1)O2 : what is it?
Response given: 190 to 192 °C

Challenge: Any idea what its melting point is? The molecule is CCC12CCC3C4CCCC=C4CCC3C1CCC2=O (stereo not given)
Response given: 101 to 102 °C

Challenge: Give the measured melting point of COCCNC(=O)c1cccc(-c2ccc3c(c2)N(c2cccc(Cl)c2Cl)CC3)c1 .
Response given: 99 to 100 °C

Challenge: Name the reported melting point value associated with the molecule CCON=C(C(C)=NOCc1ccccc1C(=COC)C(=O)OC)c1ccc(OC(C)c2ccc(Cl)cc2)cc1 (stereo not given)
Response given: 107 to 109 °C

Challenge: Quick check: melting point of CCCCCCCCCCCCSC(=O)CS(=O)(=O)Nc1c(C(C)C)cccc1C(C)C ?
Response given: 58 to 60 °C

====

# key: entry, value: melting point

Record excerpt, results attached:
>  <molecule>
O=C(O)/C=C1\CCc2c(Cl)cc(F)cc21

>  <val>
229 to 230 °C

$$$$
>  <molecule>
CCOC(=O)c1cc(=O)c2cc(OC)cc(Br)c2o1

>  <val>
159 to 161 °C

$$$$
>  <molecule>
COc1ccc(CN(C(=O)Nc2ccc(C(=O)O)cc2)c2ccc3c(c2)C(C)(C)CCC3(C)C)cc1

>  <val>
117 to 121 °C

$$$$
>  <molecule>
COCOC1CCN(c2ccc(NC(=O)c3cnn(-c4ccc(Cl)cc4)c3C)cc2C#N)CC1

>  <val>
186 to 188 °C

$$$$
>  <molecule>
Cc1nnc2ccc(-c3cccc(C(F)(F)F)c3)cn12

>  <val>
185 to 187 °C

$$$$
>  <molecule>
COc1cc(C=CC=O)ccc1OCc1coc(-c2ccccc2)n1

>  <val>
144 to 145 °C

$$$$
>  <molecule>
COc1ccc(C[C@@H](NC(=O)c2cccc3ccccc23)[C@@H](O)c2ccc(F)cc2)cc1 (racemic)

>  <val>
198 to 199 °C

$$$$
>  <molecule>
Cc1cc(C)nc(NC(N)=S)n1

>  <val>
> 260 °C

$$$$

Challenge: Quick check: melting point of CC(C)OC(=O)N1CC(=O)Nc2ccc(Br)cc21 ?
Response given: 159 to 161 °C

Challenge: Which melting point value belongs to CCN1C(=O)Cc2cnc(N3CCN(Cc4ccccc4)CC3)nc21 ?
Response given: 110 to 113 °C

Challenge: Dear colleague, I am looking for the recorded melting point of the following molecule: CC1(C)[C@@H](NCC(=O)N2C[C@@H](F)C[C@H]2C#N)CC[C@@]1(C)c1nc(-c2ccc(F)cc2)no1
Response given: 127 to 131 °C

Challenge: Tell me the measured melting point of O=S(=O)(CC(O)(CBr)c1cccc(F)c1)c1ccccc1Cl (stereo not given) , please.
Response given: 121 °C

Challenge: Recorded melting point of C=CCOc1cc(O)c2c(=O)cc(-c3ccc(OC)c(OCC=C)c3)oc2c1 , please.
Response given: 122 °C

Challenge: So what does the record say about melting point for COc1cc(OC)c2c(=O)[nH]c(-c3cc(C)c(OCCN4C(=O)CN(C(C)C)C4=O)c(C)c3)nc2c1 ?
Response given: 219 to 221 °C

====

# Lookup of reported melting point keyed by entry

>  <compound>
CC(C)(C)c1cc(-c2csc(CNC(=O)c3ccccc3)n2)cc(C(C)(C)C)c1O

>  <melting point>
200 to 201 °C

$$$$
>  <compound>
O=C1C(c2cc3c(cc2O)OCCO3)c2c(F)cccc2N1C(c1ccccc1)c1ccccc1 (stereo not given)

>  <melting point>
115 to 118 °C

$$$$
>  <compound>
CCCCCS(=O)(=O)NC(=O)/C=C/c1ccc(OCCOCCOC)cc1Oc1ncc(C(F)(F)F)cc1Cl

>  <melting point>
81 to 83 °C

$$$$
>  <compound>
CCOC(=O)C1Oc2cc(C=O)c(Cl)c(Cl)c2O1 (stereo not given)

>  <melting point>
81 to 83 °C

$$$$
>  <compound>
CCOC(=O)C1COc2c(OC)ccc([N+](=O)[O-])c2C1 (stereo not given)

>  <melting point>
66 to 68 °C

$$$$
>  <compound>
CC(C)[C@@H](NCC1(O)OC[C@@H](O)[C@@H](O)[C@@H]1O)C(=O)O (stereo not given in full)

>  <melting point>
125 to 126 °C

$$$$
>  <compound>
COC(=O)c1c(C(=O)OC)c2n(c1C)Cc1ccccc1C2

>  <melting point>
152 to 154 °C

$$$$
>  <compound>
CNC1(c2ccccc2Cl)C(=O)Nc2ccc(F)cc21 (stereo not given)

>  <melting point>
188 to 189 °C

$$$$

Challenge: Sample CC12CCC(C1)C(C)(C)C2(S)CCO (stereo not given) — what was its melting point?
Response given: 55 to 60 °C

Challenge: // lookup melting point for CCC(CNC(=O)c1cc(C#N)c(Cl)cc1OC)NC(C)C (stereo not given)
Response given: 103 to 105 °C

Challenge: Report melting point for CCOC(=O)Cc1nc(-c2ccc(F)cc2)c(-c2ccc(S(C)(=O)=O)cc2)o1 please.
Response given: 123 to 124 °C

Challenge: Recorded melting point of CN(Cc1cc(C(F)(F)F)cc(C(F)(F)F)c1)C(=O)c1ncc2ccccc2c1-c1ccccc1 , please.
Response given: 139 to 140 °C

Challenge: Sample CCCC1=NN(c2ccc(S(=O)(=O)O)cc2)C(=O)C1=CNc1ccccc1CC — what was its melting point?
Response given: 205 °C

Challenge: Name the recorded melting point for CCCCOC(=O)c1[nH]c(=O)c2cc(OC(C)C)ccc2c1O .
Response given: 118 to 123 °C

Challenge: So what's the measured melting point for this one? O=C1NC(=O)c2c1ccc(N1C(=O)C=CC1=O)c2N1C(=O)C=CC1=O
Response given: 180 to 200 °C

Challenge: Suppose we examine the compound O=C(NCCCc1ccncc1)N(C1CCCCC1)C1CCCCC1 ; what melting point value has been reported?
Response given: 143 to 146 °C
